Hello, the source for this data is PubChem BioAssay (NCI), in case you need it.

testDetails: NCI Yeast Anticancer Drug Screen. Data for the wt2 strain (AID 169);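 also: 0% = growth of vehicle-treated yeast cultures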
runConditions: S. cerevisiae wt2 strain growth inhibition; at 1.2 µM; stronger effect = higher value
The panel holds about 79,000 compounds, 15% with a hit somewhere; the sample as a whole holds those more often.
quantityKind: growth inhibition (%)
Write the value in % as a bare number.

Record excerpt, results attached:
INSERT INTO assay_data (compound, observedvalue) VALUES
  ('COc1ccc(C(NCCNC(c2ccc(OC)c(OC)c2)c2cc3c(cc2O)OCO3)c2cc3c(cc2O)OCO3)cc1OC (stereo not drawn)', -1),
  ('O=C(O)c1ccc(N2C(=O)C=CC2=O)cc1', -2);

Next compound, please.
Ask: Recorded growth inhibition of O=C(COC(=O)c1ccccc1)c1ccc(Br)cc1 , please.
Reply: 16
